- targetSystem: IL-1β (Homo sapiens, UniProt P01584)
- Sequence (P01584 117-269): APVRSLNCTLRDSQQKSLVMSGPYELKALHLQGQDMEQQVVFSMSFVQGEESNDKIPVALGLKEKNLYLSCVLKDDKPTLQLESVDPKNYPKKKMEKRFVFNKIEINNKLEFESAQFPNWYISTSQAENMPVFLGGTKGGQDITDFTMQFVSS
- assayComment: 19F-reporter displacement assay with (S)-1 as probe
- Format: binding
- Design: Mature hIL-1β was expressed in Escherichia coli; made in house; host or cells: Escherichia coli BL21 (DE3), pET17b
- experimentalParameters: 19F-reporter Ki, protein 10 μM, reporter (S)-1 40 μM
endpointLabel: Ki

Solved entries:
Cc1ccc2c(c1)N(C)C(=O)C2(O)c1cc(C(C)C)ccc1O (stereo not shown); > 1 mM
O=C1Nc2ccccc2C1(O)c1cc(Cl)ccc1O (stereo not shown); > 1 mM
Cc1ccc2c(c1)NC(=O)C2(O)c1cc(Cl)ccc1O (stereo not shown); 0.312 mM

Moving on to another compound below.
Ki measured on COc1ccc(Cl)cc1C1(O)C(=O)Nc2cc(C(F)(F)F)ccc21 (stereo not shown) = > 1 mM
